The measurements presented in this section are drawn from the supplement of paper PMC4723716.

Tested on: Plasmodium falciparum NF54 stage V gametocytes
run-description: viability index relative to DMSO control (fraction); higher = less gametocyte killing
measurement-parameters: 2.5 µM, library set: Broad Institute DOS, incubation time: 72 h
Whole data set: some 9,900 compounds, median “viability index relative to DMSO control” near 1, cut for the lowest 2% near 0.85. This is one part of a sample in which the lowest values are shown more often than they occur.
Rule: viability index below 0.8 gives true (1). Equal to or above 0.8 gives false (0).

// below: answered compounds
INSERT INTO results (smiles_text, assigned_class) VALUES
  ('O=C(Nc1ccccc1F)N1CCCCN2[C@H](CO)[C@@H](c3ccc(/C=C/c4ccccc4)cc3)[C@@H]2C1', 'false (0)'),
  ('CCC(=O)N1[C@H](CO)[C@@H]2c3ccccc3N(C(=O)c3cnccn3)C[C@@H]21', 'false (0)'),
  ('O=C(Nc1ccccc1F)N1CCCCN2[C@H](CO)[C@H](c3ccc(/C=C/c4ccccc4)cc3)[C@H]2C1', 'true (1)'),
  ('O=C(Nc1cc(F)ccc1F)N1CCCCN2[C@H](C1)[C@H](c1ccc(C3=CCCCC3)cc1)[C@@H]2CO', 'false (0)'),
  ('COc1ccc2c3c([C@H](CO)N(Cc4ccncc4)C[C@]33CN(C3)C(=O)C3CCCCC3)n(C)c2c1', 'false (0)');

viability index strictly < 0.8 for this compound? C[C@H](CO)N1C[C@H](C)[C@H](CN(C)C(=O)Nc2ccc3c(c2)OCO3)Oc2c(NC(=O)c3nc4ccccc4s3)cccc2C1=O
false (0)

Quick check: does O=C(Nc1cc(F)ccc1F)N1CCCCN2[C@H](CO)[C@H](c3ccc(C4=CCCCC4)cc3)[C@H]2C1 have viability index under 0.8?
true (1)

====

Test system: Plasmodium falciparum NF54 stage V gametocytes
run-description: viability index relative to DMSO control (fraction); higher = less gametocyte killing
measurement-parameters: 2.5 µM, library set: Broad Institute DOS, incubation time: 72 h
The full ranking holds about 9,900 compounds; the median of “viability index relative to DMSO control” is about 1, and the lowest 2% start at about 0.85. This excerpt belongs to a sample that is enriched for the lowest values.
The label is Y for viability index below 1 and N for viability index equal to or exceeding 1.

INSERT INTO measurements (smiles_text, system_name, assigned_class) VALUES
  ('Cc1noc(C)c1S(=O)(=O)Nc1ccc2c(c1)C(=O)N([C@@H](C)CO)C[C@H](C)[C@H](CN(C)Cc1ccc(C(=O)O)cc1)OCCCC[C@H](C)O2', 'Plasmodium falciparum NF54 stage V gametocytes', 'N'),
  ('O=C(NC[C@H]1[C@H](c2ccccc2)[C@@H](CO)N1Cc1ccccn1)C1CCCC1', 'Plasmodium falciparum NF54 stage V gametocytes', 'Y');

Determine if Cc1ccc(S(=O)(=O)N(C)C[C@@H]2Oc3cc(C#CC4CCCC4)ccc3S(=O)(=O)N([C@@H](C)CO)C[C@H]2C)cc1 shows viability index strictly lower than 1.
Y

Hello, I'm reviewing records and need to know if viability index of CN1[C@@H]2CN(C(=O)C3CCCCC3)c3ccccc3[C@@H]2[C@@H]1CO is below 1. Could you check?
N

Input COc1ccc(S(=O)(=O)N(C)C[C@H]2OCCCC[C@@H](C)Oc3ccc(NC(=O)Cc4ccccc4)cc3C(=O)N([C@@H](C)CO)C[C@@H]2C)cc1 ; condition: viability index strictly below 1. Does it hold?
N
